- Tested on: human lung cancer strain NCI-H441
- protocol: NCI-H441 cell proliferation inhibitory activity (CellTiter-Glo, 4 days)
- Format: cell-based
- measurementSetup: NCI-H441 cells, 4 days, read-out: NCl-H441 IC50
recordedEndpoint: IC50 (nM)
// units = nM; emit number, no label

Reference set, count: 4
CCC[C@H]1C(=O)N[C@@H]([C@@H](C)CC)C(=O)N(C2CC2)CC(=O)N(C)[C@H]2C/C(F)=C\CCN(C2=O)[C@@H](Cc2ccc(C(F)(F)F)cc2)C(=O)N(C)CC(=O)N[C@@H](CCc2cc(F)c(C(F)(F)F)c(F)c2)C(=O)N2C[C@H](OCC)C[C@H]2C(=O)NC2(CCC2)C(=O)N(C)[C@@H](C2CCCC2)C(=O)N(C)[C@H](C(=O)N(C)C)CC(=O)N1C = 19.2
CCO[C@@H]1C[C@H]2C(=O)NC3(CC(C)(C)C3)C(=O)N(C)[C@@H](C3CCCC3)C(=O)N(C)[C@H](C(=O)N(C)C)CC(=O)N(C)[C@@H]([C@H](C)OC)C(=O)N[C@@H]([C@@H](C)CC)C(=O)N(C3CC3)CC(=O)N(C)[C@H]3C/C=C\CCN(C3=O)[C@@H](Cc3ccc(C(F)(F)F)cc3)C(=O)N(C)CC(=O)N[C@@H](CCc3ccc(C(F)(F)F)c(OC)c3)C(=O)N2C1 = 33.1
CCOC[C@H]1C(=O)N[C@@H]([C@@H](C)CC)C(=O)N(C)CC(=O)N(C)[C@H]2C/C=C\CCN(C2=O)[C@@H](Cc2ccc(C)cc2)C(=O)N(C)CC(=O)N[C@@H](CCc2cc(F)c(C(F)(F)F)c(F)c2)C(=O)N2C[C@@H](C)C[C@H]2C(=O)NC2(CC(C)(C)C2)C(=O)N(C)[C@@H](C2CCCC2)C(=O)N(C)[C@H](C(=O)N(CC)CC)CC(=O)N1C = 60.1
CCC[C@H]1C(=O)N[C@@H]([C@@H](C)CC)C(=O)N2CCC[C@H]2C(=O)N(C)[C@H]2C/C(F)=C\CCN(C2=O)[C@@H](Cc2ccc(C)cc2)C(=O)N(C)CC(=O)N[C@@H](CCc2cc(F)c(C(F)(F)F)c(F)c2)C(=O)N2C[C@H](OCC)C[C@H]2C(=O)NC2(CCC2)C(=O)N(C)[C@@H](C2CCCC2)C(=O)N(C)[C@H](C(=O)N(C)C)CC(=O)N1C = 91.9

Request: Param readout = IC50; param system = human lung cancer strain NCI-H441; param query = C#CC[C@H]1C(=O)N[C@@H]([C@@H](C)CC)C(=O)N(C2CC2)CC(=O)N(C)[C@H]2C/C=C\CCN(C2=O)[C@@H](Cc2ccc(C)cc2)C(=O)N(C)CC(=O)N[C@@H](CCc2cc(F)c(C(F)(F)F)c(F)c2)C(=O)N2C[C@H](OCC)C[C@H]2C(=O)N(C)C2(CCC2)C(=O)N(C)[C@@H](C2CCCC2)C(=O)N(C)[C@H](C(=O)N(C)C)CC(=O)N1C ; response: value
Response: 2.8

====

- Tested on: human lung cancer strain NCI-H441
- Assay type: cell-based
*1 amine or outer side, *2 acyl side, *3 side chain or, on linkers, in order; H or OH if unused. Where a SMILES comes first, the peptide text is derived from it. Bridges are numbered along the chain shown (N, C = ends). [ ]: non-standard residue; d: D form. The star is where a group is joined. hPhe(3-Cl-4-CF3) = N[C@@H](CCc1ccc(C(F)(F)F)c(Cl)c1)C(=O)O; X49 = Cc1ccc(C[C@@H](C(=O)[*:2])N(CC2CC2)[*:1])cc1; NMeGly(cPent) = CN[C@H](C(=O)O)C1CCCC1; NMeD = CN[C@@H](CC(=O)O)C(=O)O; NMeL = CN[C@@H](CC(C)C)C(=O)O; Morpholide = C1CN(*)CCO1; NMeA = CN[C@@H](C)C(=O)O; Ac5c = NC1(C(=O)O)CCCC1; Aze = O=C(O)[C@@H]1CCN1; Sar = CNCC(=O)O
This listing pairs compounds with measured pIC50.
Remember, pIC50 is on a log scale: it is -log10 of the molar concentration.

A selection of reference data follows.
C#CC[C@H]1C(=O)N[C@@H]([C@@H](C)CC)C(=O)N(C)CC(=O)N(C)[C@H]2C/C=C\CCN(C2=O)[C@@H](Cc2ccc(C(F)(F)F)cc2)C(=O)N(C)CC(=O)N[C@@H](CCc2ccc(C(F)(F)F)c(Cl)c2)C(=O)N2CC3(CC3)C[C@H]2C(=O)NC2(CC(C)(C)C2)C(=O)N(C)[C@@H](C2CCCC2)C(=O)N(C)[C@H](C(=O)N(C)C)CC(=O)N1C [PP2980] = 7.93
CCC[C@H]1C(=O)N[C@@H]([C@@H](C)CC)C(=O)N(C)CC(=O)N(C)[C@H]2C/C=C\CCN(C2=O)[C@@H](Cc2ccc(C(F)(F)F)cc2)C(=O)N(C)CC(=O)N[C@@H](CCc2ccc3c(C)c(C)n(C)c3c2)C(=O)N2C[C@H](OCC)C[C@H]2C(=O)NC2(CC(C)(C)C2)C(=O)N(C)[C@@H](C2CCCC2)C(=O)N(C)[C@H](C(=O)N(C)C)CC(=O)N1C [PP2893] = 7.14
CC[C@H](C)[C@@H]1NC(=O)[C@H](CC(C)C)N(C)C(=O)C[C@@H](C(=O)N2CCOCC2)N(C)C(=O)[C@H](C2CCCC2)N(C)C(=O)C2(CCCC2)NC(=O)[C@@H]2CCCN2C(=O)[C@H](CCc2ccc(C(F)(F)F)c(Cl)c2)NC(=O)CN(C)C(=O)[C@H](Cc2ccc(C)cc2)N(CC2CC2)C(=O)[C@@H]2CCN2C(=O)[C@H](C)N(C)C1=O [PP0057] ([NMeL]I[NMeA][Aze][X49][Sar][hPhe(3-Cl-4-CF3)]P[Ac5c][NMeGly(cPent)][NMeD]-Morpholide; lactam N-11) = 8.21
CCCN1C(=O)[C@H](C2CCCC2)N(C)C(=O)C2(CCC2)NC(=O)[C@@H]2C[C@@H](OCC)CN2C(=O)[C@H](CCc2cc(F)c(C(F)(F)F)c(F)c2)NC(=O)CN(C)C(=O)[C@H](Cc2ccc(C(F)(F)F)cc2)N2CCCC[C@@H](C2=O)N(C)C(=O)CN(C)C(=O)[C@H]([C@@H](C)CC)NC(=O)[C@H](CC)N(C)C(=O)C[C@H]1C(=O)N(C)C [PP0644] = 7.68
CCC[C@H]1C(=O)N[C@@H]([C@@H](C)CC)C(=O)N(C)CC(=O)N(C)[C@H]2C/C=C\CCN(C2=O)[C@@H](Cc2ccc(C(F)(F)F)cc2)C(=O)N(C)CC(=O)N[C@@H](CCc2ccc(C(F)(F)F)c(Cl)c2)C(=O)N2C[C@H](OCC)C[C@H]2C(=O)NC2(CC(C)(C)C2)C(=O)N(C)[C@@H](CC(F)(F)F)C(=O)N(C)[C@H](C(=O)N(C)C)CC(=O)N1C [PP2975] = 7.78

// switching to the query compound
Request: Consider the compound CCO[C@@H]1C[C@H]2C(=O)NC3(CC(C)(C)C3)C(=O)N(C)[C@@H](C(CC)CC)C(=O)N(C)[C@H](C(=O)N(C)C)CC(=O)N(C)[C@H]3CCCC/C=C/c4ccc(cc4)C[C@@H](C(=O)N(C)CC(=O)N[C@@H](CCc4ccc(Cl)c(Cl)c4)C(=O)N2C1)N1CC/C=C\C[C@@H](C1=O)N(C)C(=O)CN(C)C(=O)[C@H]([C@@H](C)CC)NC3=O [PP3045] and give its measured pIC50.
Response: 7.80

====

pKd reference
- measuredTarget: GDP-bound KRAS wild-type protein (Homo sapiens, UniProt P01116)
- Sequence (P01116 1-188 isoform P01116-2): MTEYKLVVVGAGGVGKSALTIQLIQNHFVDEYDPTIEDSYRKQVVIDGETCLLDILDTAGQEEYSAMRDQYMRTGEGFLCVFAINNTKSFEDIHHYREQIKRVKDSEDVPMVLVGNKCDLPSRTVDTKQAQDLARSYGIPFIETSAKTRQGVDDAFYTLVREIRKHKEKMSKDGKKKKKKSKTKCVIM
- protocol: Binding to KRAS by surface plasmon resonance (SPR), dissociation constant KD
- measurementSetup: Single Cycle Kinetics
Expect pKd as a plain number equal to -log10 of the molar concentration.

CCO[C@@H]1C[C@H]2C(=O)NC3(CCC3)C(=O)N(C)[C@@H](C3CCCC3)C(=O)N(C)[C@H](C(=O)N(C)C)CC(=O)N(C)[C@@H](CC)C(=O)N[C@@H]([C@@H](C)CC)C(=O)N3CCC[C@H]3C(=O)N(C)[C@H]3C/C=C\CCN(C3=O)[C@@H](Cc3ccc(C(F)(F)F)cc3)C(=O)N(C)CC(=O)N[C@@H](CCc3cc(F)c(C(F)(F)F)c(F)c3)C(=O)N2C1 [PP1056] = 9.68
CCC[C@H]1C(=O)N[C@@H]([C@@H](C)CC)C(=O)N2CCC[C@H]2C(=O)N(C)[C@H]2C/C=C\CCN(C2=O)[C@@H](Cc2ccc(C(F)(F)F)cc2)C(=O)N(C)CC(=O)N[C@@H](CCc2ccc(C(F)(F)F)c(OC)c2)C(=O)N2C[C@H](OCC)C[C@H]2C(=O)OC2(CCC2)C(=O)N(C)[C@@H](C2CCCC2)C(=O)N(C)[C@H](C(=O)N(C)C)CC(=O)N1C [PP3368] = 9.24

Request: Consider the molecule CCCO[C@@H]1C[C@H]2C(=O)NC3(CC(C)(C)C3)C(=O)N(C)[C@@H](C3CCCC3)C(=O)N(C)[C@H](C(=O)N(C)CC)CC(=O)N[C@@H](COCC)C(=O)N[C@@H]([C@@H](C)CC)C(=O)N(C3CC3)CC(=O)N(C)[C@H]3C/C=C\CCN(C3=O)[C@@H](Cc3ccc(C)cc3)C(=O)N(C)CC(=O)N[C@@H](CCc3cc(F)c(C(F)(F)F)c(F)c3)C(=O)N2C1 [PP3421] and give its measured pKd.
Response: 8.72
